For each record, write down the corresponding MIC.
The answer is to be given in µg/mL; state only the numeric part.

Report the value of MIC obtained on Serratia marcescens for CC1(C)[C@H](NC(=O)/C(=N\OC2(C(=O)O)CCC2)c2csc(N)n2)C(=O)N1OS(=O)(=O)O . 0.25

State MIC (Serratia marcescens) of CC1(C)[C@H](NC(=O)/C(=N\OC2(C(=O)O)CCCC2)c2csc(N)n2)C(=O)N1OS(=O)(=O)O . 0.5

Using Serratia marcescens as the test system, report measured MIC of CC1(C)[C@H](NC(=O)/C(=N\OC2(C(=O)O)CC2)c2csc(N)n2)C(=O)N1OS(=O)(=O)O . 0.25

Lab note: Serratia marcescens assay, enter MIC for CC(C)[C@H](O/N=C(\C(=O)N[C@@H]1C(=O)N(OS(=O)(=O)O)C1(C)C)c1csc(N)n1)C(=O)O here 0.25

Retrieve MIC on Serratia marcescens; query C[C@H]1COc2c(N3CCN(C)CC3)c(F)cc3c(=O)c(C(=O)O)cn1c23 [Levofloxacin, levofloxacin, reference compound] 0.12

Give reported MIC for CC(C)[C@@H](O/N=C(\C(=O)N[C@@H]1C(=O)N(OS(=O)(=O)O)C1(C)C)c1csc(N)n1)C(=O)O (Serratia marcescens) 32

Output reported MIC of the compound CC1(C)[C@H](NC(=O)/C(=N\OC2(C(=O)O)CCCCC2)c2csc(N)n2)C(=O)N1OS(=O)(=O)O on Serratia marcescens. 2

// output MIC; input C[C@H]1[C@H](NC(=O)/C(=N\OC(C)(C)C(=O)O)c2csc(N)n2)C(=O)N1S(=O)(=O)O [AZN, aztreonam, reference compound] ; system Serratia marcescens 0.12

###

Would you mind telling me the reported Minimal Inhibitory Concentration (MIC) of each entry?
Tested on: Escherichia coli
ASSAY COMMENT: Antibacterial activity MIC assay (two-fold dilution agar plating)
Assay type: cell-based
EXPERIMENTAL CONTEXT: Escherichia coli 16-7, ESBLs(−)
Where a SMILES comes first, the peptide text is derived from it. Bridges are numbered along the chain shown (N, C = ends). [ ]: non-standard residue; d: D form. The star is where a group is joined. Heptanoyl(6-Me) = CC(C)CCCCC(=O)*; Dab = NCC[C@H](N)C(=O)O
State just the number; it will be interpreted in µg/mL.

Respond only with Minimal Inhibitory Concentration (MIC) recorded for C#CCON=C(C(=O)NC1C(=O)N(OS(=O)(=O)O)C1(C)C)c1csc(N)n1 (stereo not shown) 0.5

State its Minimal Inhibitory Concentration (MIC) for this compound: C=CCON=C(C(=O)NC1C(=O)N(OS(=O)(=O)O)C1(C)C)c1csc(N)n1 (stereo not shown) 0.25

Identify Minimal Inhibitory Concentration (MIC) associated with the compound CC1(C)[C@H](NC(=O)/C(=N\OC2(C(=O)O)CC2)c2nsc(N)n2)C(=O)N1OS(=O)(=O)O 0.5

Identify measured Minimal Inhibitory Concentration (MIC) corresponding to CC(C)CCCCC(=O)N[C@@H](CCN)C(=O)N[C@H](C(=O)N[C@@H](CCN)C(=O)N[C@H]1CCNC(=O)[C@H]([C@@H](C)O)NC(=O)[C@H](CCN)NC(=O)[C@H](CCN)NC(=O)[C@H](CC(C)C)NC(=O)[C@@H](CC(C)C)NC(=O)[C@H](CCN)NC1=O)[C@@H](C)O [Colistin B, colistin B, reference compound] ({Heptanoyl(6-Me)}-[Dab]T[Dab][Dab][Dab][dL]L[Dab][Dab]T; lactam 4-C) 1
